The origin of these recorded values is paper PMC9482650.

Molecular target: T1, ARHGEF11, O15085
T1 sequence (O15085 42-136, limits assumed, looked up): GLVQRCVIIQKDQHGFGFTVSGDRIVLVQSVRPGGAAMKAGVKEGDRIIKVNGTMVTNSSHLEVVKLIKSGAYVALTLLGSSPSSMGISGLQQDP
Assay: holdup assay
Design: key: below the threshold = too weak to quantify, mostly under pKd 3.1 to 4
Conditions: plain residues with an end cap or a label only (N-terminal biotin on a linker: ado-ado)
measuredEndpoint: pKd

INSERT INTO measurements (binder, measuredendpoint, testvalue) VALUES
  ('HSGYRLNDYV [CLDN14, O95500]', 'pKd', 3.71),
  ('ETQVTAETVI [TMEM225B, P0DP42]', 'pKd', 'below the threshold'),
  ('EVNETDDTKM [KCNJ1, P48048]', 'pKd', 3.7),
  ('YLEPVLSSEL [ATP2A2, P16615;P16615-3]', 'pKd', 4.55),
  ('LSEFKAMDSI [CTNNA1, P35221]', 'pKd', 'below the threshold'),
  ('RRLPGKETMA [GRIK2, Q13002]', 'pKd', 'below the threshold'),
  ('SKSNFGSEPL [KIF17, Q9P2E2]', 'pKd', 'below the threshold'),
  ('VNKSKLLTDV [KCNA1, Q09470]', 'pKd', 4.29),
  ('KKAPTNEFYA [SDC4, P31431]', 'pKd', 'below the threshold'),
  ('RRRESYSTTV [EVI5, O60447]', 'pKd', 4.68),
  ('IKAIVDLTGL [TRAF2, Q12933]', 'pKd', 'below the threshold'),
  ('SARSRLSSNL [HCN2, Q9UL51]', 'pKd', 3.74),
  ('GSGAVEMESV [AQP6, Q13520]', 'pKd', 'below the threshold'),
  ('RRISSLESEV [GRIN2C, Q14957]', 'pKd', 3.98);
